System: P12-Ichikawa
protocol_description: cell viability relative to DMSO control; higher = less cytotoxic
condition_details: RPMI 5 mM glucose + 10% dialyzed FBS; 48 h; 0.00702 µM
measured_quantity: cell viability (%)
The response must be a number in % with no trailing unit.

Please review the entries below; each comes with its answer.
C1CCC(C(CC2CCCCN2)C2CCCCC2)CC1 (centres undefined): 107
Cc1cccc(C)c1OCC(=O)N[C@@H](Cc1ccccc1)[C@@H](O)C[C@H](Cc1ccccc1)NC(=O)[C@H](C(C)C)N1CCCNC1=O: 94.1
Cc1cc(Nc2nc(N[C@@H](C)c3ncc(F)cn3)ncc2Cl)n[nH]1: 119

Quick one: cell viability of "CCOC(=O)N1CCN(/[N+]([O-])=N/Oc2ccc([N+](=O)[O-])cc2[N+](=O)[O-])CC1" ?
87.7

* * *

Test system: P12-Ichikawa
protocol_description: cell viability relative to DMSO control; higher = less cytotoxic
condition_details: HPLM + 10% dialyzed FBS; 48 h; 0.0632 µM
Each entry below carries its reported cell viability.
The response must be a number in % with no trailing unit.

# value lookup — system P12-Ichikawa, readout cell viability, item "CCN(CC)CCCCNc1nc2cc(Cl)c(Cl)cc2nc1-c1ccc(-c2cccs2)s1"
109

# value lookup — system P12-Ichikawa, readout cell viability, item "O=C1Nc2ccc(Cl)cc2[C@@](C#CC2CC2)(C(F)(F)F)O1"
90.2

# value lookup — system P12-Ichikawa, readout cell viability, item "CC(C)Nc1cc(C(F)(F)F)cc2nc(NC(=O)c3cccnc3)nn12"
108

# value lookup — system P12-Ichikawa, readout cell viability, item "OC[C@H](Cc1ccccc1)Nc1nc(Oc2ccc3c(c2)CCC3)nc2c1ncn2Cc1ccc(-c2ccccc2)cc1"
96.4

# value lookup — system P12-Ichikawa, readout cell viability, item "CCc1c(C(=O)C(N)=O)c2c(OCC(=O)O)cccc2n1Cc1ccccc1"
107

# value lookup — system P12-Ichikawa, readout cell viability, item "NC(CO)(CO)CCc1ccc(Sc2cccc(OCc3ccccc3)c2)cc1Cl"
115

# value lookup — system P12-Ichikawa, readout cell viability, item "O=C(CO)N1CCC(c2n[nH]c(-c3ccc(Cl)cc3)c2-c2ccncn2)CC1"
113

# value lookup — system P12-Ichikawa, readout cell viability, item "NC1=NC=C(C=C1)C2=CC=C3N=CC\4=C(N(C(=O)\C=C4)C5=CC(=CC=C5)C(F)(F)F)C3=C2"
58.6

# value lookup — system P12-Ichikawa, readout cell viability, item "CCCCNc1cc(C(=O)O)cc([S+](N)(=O)[O-])c1Oc1ccccc1"
124

* * *

Tested on: NOMO1
protocol_description: cell viability relative to DMSO control; higher = less cytotoxic
condition_details: RPMI 5 mM glucose + 10% dialyzed FBS; 48 h; 0.569 µM
measured_quantity: cell viability (%)
The response must be a number in % with no trailing unit.

Please review the entries below; each comes with its answer.
CC1=CC=CC=C1CN2C(=O)C/3=C(/CCN(CC4=CC=CC=C4)C3)N\5CC\N=C25: 133
CNC1[C@@H](O)C(O[C@@H]2C(O)C(O[C@H]3O[C@H]([C@@H](C)NC)CC[C@H]3N)[C@@H](N)C[C@H]2N)OC[C@]1(C)O (stereo not given in full): 92.1

Quick one: cell viability of "COc1cc(Nc2ncc(F)c(Nc3ccc4c(n3)NC(=O)C(C)(C)O4)n2)cc(OC)c1OC" ?
128

Quick one: cell viability of "Cc1ncc(OC[C@@]2(c3cccc(F)c3)C[C@H]2C(=O)Nc2ccc(F)cn2)c(C)n1" ?
97

Quick one: cell viability of "OC[C@H]1O[C@H]([C@@H](F)[C@@H]1O)N2\C=C/C(=O)NC2=O" ?
105
